All values here come from patent US20260138990A1.

Quick list: pIC50 per entry.
# measured.target: human CD38 (Homo sapiens, UniProt P28907)
# Sequence (P28907 whole entry): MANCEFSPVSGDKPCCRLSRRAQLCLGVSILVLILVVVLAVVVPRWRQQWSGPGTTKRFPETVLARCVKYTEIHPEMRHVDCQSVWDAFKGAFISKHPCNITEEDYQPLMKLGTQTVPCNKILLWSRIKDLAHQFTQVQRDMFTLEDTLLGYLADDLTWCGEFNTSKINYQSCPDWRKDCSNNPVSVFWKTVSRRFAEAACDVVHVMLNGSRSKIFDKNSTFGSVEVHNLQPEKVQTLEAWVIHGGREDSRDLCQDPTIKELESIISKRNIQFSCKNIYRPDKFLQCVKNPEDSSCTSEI
# assay.text: NAD+ cyclase activity assay with human recombinant CD38 protein (ε-NAD fluorescence)
# stated.conditions: 1.9 nM human CD38, substrate ε-NAD, 30 min preincubation, fluorescence 300/410 nm
pIC50: −log10 of the molar value.

{"compound": "O=C(N[C@H]1CC[C@H](N2CC(C(F)F)C2)CC1)c1ccc2c(c1)-c1cncn1CCO2 [Compound 113A]", "pIC50": "> 7.52"}
{"compound": "O=C(NC1CCC(CC(F)(F)F)CC1)c1cc(Cl)c2c(c1)-c1cncn1CCO2 (stereo not shown) [Compound 165A]", "pIC50": "> 7.52"}
{"compound": "O=C(NC1CCCC(C(F)(F)F)C1)c1cc(Cl)c2c(c1)-c1cncn1CCO2 (stereo not shown) [Compound 181A]", "pIC50": "> 7.52"}
{"compound": "CC1(C)Cn2cncc2-c2cc(C(=O)N[C@@H]3CCCOC3)ccc2O1 [Compound 38A]", "pIC50": "< 6.00"}
{"compound": "O=C(N[C@@H]1CCCC(F)(F)C1)c1ccc2c(c1)-c1cncn1CCO2 [Compound 116A]", "pIC50": "> 7.52"}
{"compound": "O=C(N[C@H]1CC[C@H](N2CCC(F)(F)C2)CC1)c1ccc2c(c1)-c1cncn1CCO2 [Compound 71A]", "pIC50": "> 7.52"}
{"compound": "CC1(C)COc2ccc(C(=O)N[C@@H]3CCCOC3)cc2-c2cncn21 [Compound 51A]", "pIC50": "< 6.00"}
{"compound": "O=C(Nc1cnc(N2CC(C(F)F)C2)nc1)c1ccc2c(c1)-c1cncn1CCO2 [Compound 124A]", "pIC50": "> 7.52"}
{"compound": "O=C(NC1CC(F)(F)C1)c1cc(Cl)c2c(c1)-c1cncn1CCO2 [Compound 134A]", "pIC50": "> 7.52"}
{"compound": "C[C@H](N[C@H]1CC[C@H](NC(=O)c2ccc3c(c2)-c2cncn2CCO3)CC1)C(F)(F)F [Compound 87A]", "pIC50": "> 7.52"}
{"compound": "O=C(NC1CC(F)(F)C1)c1cc(F)c2c(c1)-c1cncn1CCO2 [Compound 135A]", "pIC50": "> 7.52"}
{"compound": "COCCNC(=O)[C@H]1CC[C@H](NC(=O)c2ccc3c(c2)-c2cncn2CCO3)CC1 [Compound 59A]", "pIC50": "> 7.52"}
{"compound": "O=C(N[C@H]1CC[C@@H](OCCC(F)(F)F)CC1)c1ccc2c(c1)-c1cncn1CCO2 [Compound 89A]", "pIC50": "6.00 to 7.00"}
{"compound": "O=C(N[C@H]1CC[C@@H](OCCCF)CC1)c1ccc2c(c1)-c1cncn1CCO2 [Compound 79A]", "pIC50": "6.00 to 7.00"}
{"compound": "O=C(N[C@@H]1CCCOC1)c1cc(F)c2c(c1)-c1cncn1CCO2 [Compound 130A]", "pIC50": "7.00 to 7.52"}
{"compound": "CS(=O)(=O)C1CCC(NC(=O)c2ccc3c(c2)-c2cncn2CCO3)CC1 (stereo not shown) [Compound 146A]", "pIC50": "7.00 to 7.52"}

----------
# measured.target: mouse CD38 (Mus musculus)
# Sequence (P56528 whole entry): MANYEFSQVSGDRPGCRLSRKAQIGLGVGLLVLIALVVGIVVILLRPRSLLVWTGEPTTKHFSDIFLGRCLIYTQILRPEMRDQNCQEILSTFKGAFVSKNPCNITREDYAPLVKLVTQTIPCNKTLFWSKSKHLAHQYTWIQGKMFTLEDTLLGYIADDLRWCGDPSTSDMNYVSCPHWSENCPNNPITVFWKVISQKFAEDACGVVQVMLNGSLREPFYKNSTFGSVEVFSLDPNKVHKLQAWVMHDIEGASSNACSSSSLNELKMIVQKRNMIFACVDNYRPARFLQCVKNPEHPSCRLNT
# assay.text: NAD+ cyclase activity assay with mouse recombinant CD38 protein (ε-NAD fluorescence)
# stated.conditions: 0.6 nM mouse CD38, substrate ε-NAD, 30 min preincubation, fluorescence 300/410 nm
Listed compounds paired with reported IC50

{"compound": "O=C(N[C@H]1CC[C@H](NCC(F)(F)F)CC1)c1cc(F)c2c(c1)-c1cncn1CCO2 [Compound 115A]", "IC50": "< 1 nM"}
{"compound": "O=C(Nc1cnc(NCC(F)(F)F)nc1)c1ccc2c(c1)-c1cncn1CCO2 [Compound 100A]", "IC50": "1 to 10 nM"}
{"compound": "O=C(NC1CCC(CC(F)(F)F)CC1)c1ccc2c(c1)-c1cncn1CCO2 (stereo not drawn) [Compound 119A]", "IC50": "1 to 10 nM"}
{"compound": "CN1CCOc2ncc(NC(=O)c3ccc4c(c3)-c3cncn3CCO4)cc21 [Compound 101A]", "IC50": "< 1 nM"}
{"compound": "O=C(N[C@@H]1CCCOC1)c1ccc2c(c1)-n1cncc1CCO2 [Compound 15A]", "IC50": "> 100 nM"}
{"compound": "O=C(N[C@H]1CC[C@@H](OC2CC(F)(F)C2)CC1)c1cc(Cl)c2c(c1)-c1cncn1CCO2 [Compound 173A]", "IC50": "10 to 100 nM"}
{"compound": "O=C(Nc1ccc2scnc2c1)c1ccc2c(c1)-c1cncn1CCO2", "IC50": "1 to 10 nM"}
{"compound": "O=C(N[C@H]1CC[C@H](N2CCC(F)(F)C2)CC1)c1ccc2c(c1)-c1cncn1CCO2 [Compound 71A]", "IC50": "1 to 10 nM"}
{"compound": "CC(C)(CO[C@H]1CC[C@H](NC(=O)c2cc(Cl)c3c(c2)-c2cncn2CCO3)CC1)C(F)(F)F [Compound 170A]", "IC50": "1 to 10 nM"}
{"compound": "O=C(N[C@H]1CC[C@H](OCCC(F)F)CC1)c1ccc2c(c1)-c1cncn1CCO2 [Compound 78A]", "IC50": "> 100 nM"}
{"compound": "O=C(NC1CCCC(F)(F)C1)c1ccc2c(c1)-c1cncn1CCO2 (stereo not drawn) [Compound 96A]", "IC50": "1 to 10 nM"}
{"compound": "CC(C)(CO[C@H]1CC[C@@H](NC(=O)c2cc(Cl)c3c(c2)-c2cncn2CCO3)CC1)C(F)(F)F [Compound 171A]", "IC50": "> 100 nM"}
{"compound": "O=C(NC1CCC(CC(F)(F)F)CC1)c1cc(F)c2c(c1)-c1cncn1CCO2 (stereo not drawn) [Compound 164A]", "IC50": "1 to 10 nM"}
{"compound": "O=C(N[C@H]1CC[C@@H](OCC2(C(F)(F)F)CC2)CC1)c1ccc2c(c1)-c1cncn1CCO2 [Compound 118A]", "IC50": "> 100 nM"}
{"compound": "O=C(N[C@@H]1CCCOC1)c1ccc2[nH]c(=O)c3cncn3c2c1 [Compound 13A]", "IC50": "> 100 nM"}

----------
Entries and their measured IC50 follow.
# measured.target: human CD38 (Homo sapiens, UniProt P28907)
# Construct: purchased Bio-Techne GmbH AVI2404
# assay.text: NAD+ cyclase activity assay with human recombinant CD38 protein (ε-NAD fluorescence)
# Type: biochemical
# stated.conditions: 1.9 nM human CD38, substrate ε-NAD, 30 min preincubation, fluorescence 300/410 nm
recorded.endpoint: IC50

{"molecule": "CS(=O)(=O)c1cncc(NC(=O)c2ccc3c(c2)-c2cncn2CCO3)c1 [Compound 22A]", "recorded.endpoint": "IC50", "result": "< 0.03 µM"}
{"molecule": "CS(=O)(=O)N1CCC(NC(=O)c2ccc3c(c2)-c2cncn2CCO3)CC1", "recorded.endpoint": "IC50", "result": "< 0.03 µM"}
{"molecule": "COC(C)(C)CO[C@H]1CC[C@H](NC(=O)c2ccc3c(c2)-c2cncn2CCO3)CC1 [Compound 127A]", "recorded.endpoint": "IC50", "result": "< 0.03 µM"}
{"molecule": "COCCNc1nc2cc(NC(=O)c3ccc4c(c3)-c3cncn3CCO4)ccc2s1 [Compound 48A]", "recorded.endpoint": "IC50", "result": "< 0.03 µM"}
{"molecule": "CC(C)(O)[C@H]1CC[C@H](NC(=O)c2cc(F)c3c(c2)-c2cncn2CCO3)CC1 [Compound 114A]", "recorded.endpoint": "IC50", "result": "< 0.03 µM"}
{"molecule": "CC1CC(CC(F)(F)F)CCC1NC(=O)c1cc(Cl)c2c(c1)-c1cncn1CCO2 (stereo not drawn) [Compound 183A]", "recorded.endpoint": "IC50", "result": "< 0.03 µM"}
{"molecule": "Cc1c(C(=O)NC2CCC(F)(F)CC2)cc2c(c1C)OCCn1cncc1-2 [Compound 180A]", "recorded.endpoint": "IC50", "result": "0.1 to 1 µM"}
{"molecule": "O=C(N[C@@H]1CCCOC1)c1ccc2c(c1)-c1cncn1CCO2", "recorded.endpoint": "IC50", "result": "< 0.03 µM"}
{"molecule": "O=C(Nc1ccc2c(c1)CCO2)c1ccc2c(c1)-c1cncn1CCO2", "recorded.endpoint": "IC50", "result": "< 0.03 µM"}
